Data provenance is paper PMC4242493.

SYSTEM: MaxL homodimer (Homo sapiens, UniProt P61244 1-160)
Sequence (P61244 whole entry): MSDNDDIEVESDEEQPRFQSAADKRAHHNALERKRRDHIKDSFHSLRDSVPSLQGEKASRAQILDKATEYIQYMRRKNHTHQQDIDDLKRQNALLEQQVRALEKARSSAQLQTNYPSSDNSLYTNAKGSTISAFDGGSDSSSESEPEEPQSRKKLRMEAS
TEST DETAILS: universal protein-binding microarray (PBM); PBS-based mixture, 10 nM His-tagged protein dimer, 2% milk, 200 ng/uL BSA, 50 ng/uL salmon testes DNA, 0.02% TX-100; detection with Alexa 488 anti-His antibody;; high values mean tight binding;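 further: fluorescence intensity normalized to that of the highest-ranked 8-mer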
COND: protein: recombinant; tags: C-terminal His-tag (pET21a); chain copies: 2; dsDNA, one strand shown
The full ranking holds about 33,000 sequences; the median of “normalized occupancy” is about 0.075, and the highest 2% start at about 0.095. For the sample, the highest values were picked, then their nearest neighbours and some sequences at random.
Label rule, in plain words: binding signal of 0.09 normalized occupancy and up is Satisfied, under 0.09 normalized occupancy is Not satisfied.

| SEQUENCE CODE | CLASS NAME |
| --- | --- |
| ACAGGGAG | Not satisfied |
| ACCCGTCA | Not satisfied |
| CCACGTCG | Not satisfied |
| CATCATGC | Satisfied |
| AGGACAAG | Not satisfied |
| TACCTTAA | Not satisfied |
| GTGTGTGA | Not satisfied |
| ATGTGCGA | Not satisfied |
| ATGTGCGC | Satisfied |
| CCGTGGTA | Not satisfied |
| ACGTGGTA | Satisfied |
| CCACCTGC | Satisfied |
| AATCATGT | Satisfied |
| ACGAGGCT | Not satisfied |
| GCCTACCC | Not satisfied |
| CGTGCTGA | Satisfied |
| AATCATGG | Not satisfied |
| GCGACGCA | Not satisfied |
| CACAGCAA | Not satisfied |
| AGCGCATG | Satisfied |
| CTAGAATA | Not satisfied |
| AGCGTTAC | Not satisfied |
| AGGGCATA | Not satisfied |
| AACATCGC | Not satisfied |
| ACGAACAG | Not satisfied |
| GCAACACA | Not satisfied |
| CAATGCGC | Not satisfied |
| AGGTGGTA | Not satisfied |
| CCGCGTAC | Not satisfied |
| GTGAGTGA | Not satisfied |
| GAACACGC | Satisfied |
| ATGTGAGG | Not satisfied |
| CGCACTGA | Not satisfied |
| TCACCTGA | Not satisfied |
| GTGTGAGA | Not satisfied |
| ATTATTTG | Not satisfied |
| CTCGTTTC | Not satisfied |
| ACGCGTCG | Not satisfied |
| ACCGCATG | Satisfied |
| GGGCGTGA | Satisfied |
| AGCGCATC | Not satisfied |
| CAATCACC | Not satisfied |
| CCGCGTGC | Satisfied |
| GTTGAGAA | Not satisfied |
| GTCATCGA | Not satisfied |
| ACGCGTTC | Not satisfied |
| ATGTGTCC | Not satisfied |
| GTGGGGCA | Not satisfied |
| CACGTGAC | Satisfied |
| GTGCCTTA | Not satisfied |
| GGGTGGTA | Not satisfied |
| ACGCGTCC | Not satisfied |
| GTTTGTGA | Not satisfied |
| ACTGCACT | Not satisfied |
| AAACATGC | Satisfied |
| CCACCTGA | Satisfied |
| CCAGGGGA | Not satisfied |
| GATCATGC | Satisfied |
| ATGTGAGA | Satisfied |
| GACGTGAA | Not satisfied |
| ACGCGTGG | Satisfied |
| AAACATGT | Satisfied |
| CCGTACGC | Not satisfied |
| CTTACAAC | Not satisfied |
| AATCATCC | Not satisfied |
| GAACACGA | Satisfied |
| CCACCTCG | Not satisfied |
| GATCATGA | Not satisfied |
| TACGTGAA | Not satisfied |
| CCACCTTC | Not satisfied |

====

SYSTEM: MaxL homodimer (Homo sapiens, UniProt P61244 1-160)
TEST DETAILS: universal protein-binding microarray (PBM); PBS-based mixture, 10 nM His-tagged protein dimer, 2% milk, 200 ng/uL BSA, 50 ng/uL salmon testes DNA, 0.02% TX-100; detection with Alexa 488 anti-His antibody;; high values mean tight binding;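 further: fluorescence intensity normalized to that of the highest-ranked 8-mer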
COND: protein: recombinant; tags: C-terminal His-tag (pET21a); chain copies: 2; dsDNA, one strand shown
Whole data set: some 33,000 sequences, median “normalized occupancy” near 0.075, cut for the highest 2% near 0.095. The full list was thinned out, with the highest values kept by preference.
Rule: binding signal below 0.08 normalized occupancy gives True, anything at or above gives False.

| SEQUENCE CODE | SYSTEM | CLASS NAME |
| --- | --- | --- |
| AACATGCT | MaxL homodimer (Homo sapiens, UniProt P61244 1-160) | False |
| AGCATGCT | MaxL homodimer (Homo sapiens, UniProt P61244 1-160) | False |
| AGCATACA | MaxL homodimer (Homo sapiens, UniProt P61244 1-160) | False |
| AGCATGCA | MaxL homodimer (Homo sapiens, UniProt P61244 1-160) | False |
| ATTGGCGC | MaxL homodimer (Homo sapiens, UniProt P61244 1-160) | True |
| AGCATTCA | MaxL homodimer (Homo sapiens, UniProt P61244 1-160) | True |
| ACACATGC | MaxL homodimer (Homo sapiens, UniProt P61244 1-160) | False |
| CGCATCCG | MaxL homodimer (Homo sapiens, UniProt P61244 1-160) | True |
| ACACATGT | MaxL homodimer (Homo sapiens, UniProt P61244 1-160) | False |
| TAAGGACA | MaxL homodimer (Homo sapiens, UniProt P61244 1-160) | True |
| ATACATGC | MaxL homodimer (Homo sapiens, UniProt P61244 1-160) | False |
| CGCGTGCA | MaxL homodimer (Homo sapiens, UniProt P61244 1-160) | False |
| AGAAACCC | MaxL homodimer (Homo sapiens, UniProt P61244 1-160) | True |
| CGCATGCG | MaxL homodimer (Homo sapiens, UniProt P61244 1-160) | False |
| CGGGTGCA | MaxL homodimer (Homo sapiens, UniProt P61244 1-160) | True |
| TGCATACA | MaxL homodimer (Homo sapiens, UniProt P61244 1-160) | False |
| ATACATGA | MaxL homodimer (Homo sapiens, UniProt P61244 1-160) | False |

====

SYSTEM: MaxL homodimer (Homo sapiens, UniProt P61244 1-160)
TEST DETAILS: universal protein-binding microarray (PBM); PBS-based mixture, 10 nM His-tagged protein dimer, 2% milk, 200 ng/uL BSA, 50 ng/uL salmon testes DNA, 0.02% TX-100; detection with Alexa 488 anti-His antibody;; high values mean tight binding;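 further: fluorescence intensity normalized to that of the highest-ranked 8-mer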
COND: protein: recombinant; tags: C-terminal His-tag (pET21a); chain copies: 2; dsDNA, one strand shown
Over roughly 33,000 sequences, “normalized occupancy” has its median near 0.075; the highest 2% begin near 0.095. The full list was thinned out, with the highest values kept by preference.
Quick list: binding signal per entry.
MEASUREMENT TYPE: binding signal (normalized occupancy)

| SEQUENCE CODE | SYSTEM | MEASUREMENT TYPE | VALUE OBSERVED |
| --- | --- | --- | --- |
| AACATGCA | MaxL homodimer (Homo sapiens, UniProt P61244 1-160) | binding signal | 0.0927 |
| AGGACCAT | MaxL homodimer (Homo sapiens, UniProt P61244 1-160) | binding signal | 0.0823 |
| ATGGCATA | MaxL homodimer (Homo sapiens, UniProt P61244 1-160) | binding signal | 0.085 |
| CACATGAG | MaxL homodimer (Homo sapiens, UniProt P61244 1-160) | binding signal | 0.109 |
| AGGTTCTA | MaxL homodimer (Homo sapiens, UniProt P61244 1-160) | binding signal | 0.0755 |
| ATGGCACG | MaxL homodimer (Homo sapiens, UniProt P61244 1-160) | binding signal | 0.0985 |
| GACATGAA | MaxL homodimer (Homo sapiens, UniProt P61244 1-160) | binding signal | 0.0775 |
| ATGAGCCC | MaxL homodimer (Homo sapiens, UniProt P61244 1-160) | binding signal | 0.0757 |
| ACAGGTTG | MaxL homodimer (Homo sapiens, UniProt P61244 1-160) | binding signal | 0.0821 |
| AGGGTTGC | MaxL homodimer (Homo sapiens, UniProt P61244 1-160) | binding signal | 0.0731 |
| GAGACATA | MaxL homodimer (Homo sapiens, UniProt P61244 1-160) | binding signal | 0.0802 |
| GTTTGGAA | MaxL homodimer (Homo sapiens, UniProt P61244 1-160) | binding signal | 0.0754 |
| AACATGAG | MaxL homodimer (Homo sapiens, UniProt P61244 1-160) | binding signal | 0.0999 |
| GACCAGCA | MaxL homodimer (Homo sapiens, UniProt P61244 1-160) | binding signal | 0.0755 |
| ACGCCTGG | MaxL homodimer (Homo sapiens, UniProt P61244 1-160) | binding signal | 0.0735 |
| AGAACGCA | MaxL homodimer (Homo sapiens, UniProt P61244 1-160) | binding signal | 0.0762 |
| TACATGAA | MaxL homodimer (Homo sapiens, UniProt P61244 1-160) | binding signal | 0.0793 |
| AACACGCA | MaxL homodimer (Homo sapiens, UniProt P61244 1-160) | binding signal | 0.0915 |
| AAAGAGGA | MaxL homodimer (Homo sapiens, UniProt P61244 1-160) | binding signal | 0.0738 |
| GACATGCC | MaxL homodimer (Homo sapiens, UniProt P61244 1-160) | binding signal | 0.0968 |
| CAGTTATA | MaxL homodimer (Homo sapiens, UniProt P61244 1-160) | binding signal | 0.0794 |
| AAGGCATA | MaxL homodimer (Homo sapiens, UniProt P61244 1-160) | binding signal | 0.0742 |
| AAGGCATG | MaxL homodimer (Homo sapiens, UniProt P61244 1-160) | binding signal | 0.0988 |
| ACTAGTCA | MaxL homodimer (Homo sapiens, UniProt P61244 1-160) | binding signal | 0.0755 |
| GGACCCCA | MaxL homodimer (Homo sapiens, UniProt P61244 1-160) | binding signal | 0.0794 |
| CTTCGCTA | MaxL homodimer (Homo sapiens, UniProt P61244 1-160) | binding signal | 0.0727 |
| GGTCTTAA | MaxL homodimer (Homo sapiens, UniProt P61244 1-160) | binding signal | 0.075 |
| CTACTAGA | MaxL homodimer (Homo sapiens, UniProt P61244 1-160) | binding signal | 0.0787 |
| CAAATGCC | MaxL homodimer (Homo sapiens, UniProt P61244 1-160) | binding signal | 0.0743 |
| CACACACA | MaxL homodimer (Homo sapiens, UniProt P61244 1-160) | binding signal | 0.087 |
| CACACGCA | MaxL homodimer (Homo sapiens, UniProt P61244 1-160) | binding signal | 0.0865 |
| AACACGCC | MaxL homodimer (Homo sapiens, UniProt P61244 1-160) | binding signal | 0.0909 |
| AACACACA | MaxL homodimer (Homo sapiens, UniProt P61244 1-160) | binding signal | 0.0847 |
| CACATGCG | MaxL homodimer (Homo sapiens, UniProt P61244 1-160) | binding signal | 0.159 |
